# procedure.summary: Fluorescence assay for inhibition of L-cystine crystal formation (aqueous solubility of L-cystine, OPA/NBC)
# Format: physicochemical
# particulars: concentration required to double the aqueous solubility of cystine; water, 25° C., 72 h
quantity: EC2x

compound="N[C@@H](CSSC[C@H](N)C(=O)NC1CC1)C(=O)NC1CC1 [LH704, L-Cystine bis(cyclopropylamide)]" quantity=EC2x value_measured="3.53 mM"
compound="COC(=O)[C@@H](N)CSSC[C@H](N)C(=O)OC [CDME, L-cystine dimethylester]" quantity=EC2x value_measured="6.37 mM"
compound="N[C@@H](CSSC[C@H](N)C(=O)NCCO)C(=O)NCCO [LH709, L-Cystine diethanolamide]" quantity=EC2x value_measured="2.02 mM"
compound="CN1CCN(C(=O)[C@@H](N)CSSC[C@H](N)C(=O)N2CCN(C)CC2)CC1 [LH708, L-Cystine bis(N′-methylpiperazide)]" quantity=EC2x value_measured="0.26 mM"
